- Test system: K. aridum
- PROTOCOL DESCRIPTION: susceptibility of K. aridum to antibiotics, disk diffusion method
- Type: cell-based, Kibdelosporangium aridum
- COND: Kibdelosporangium aridum, 168 h
ENDPOINT LABEL: zone of inhibition at 5 µg/disc

# query: zone of inhibition at 5 µg/disc of entry CO[C@H]1/C=C/O[C@@]2(C)Oc3c(C)c(O)c4c(O)c(c(/C=N/N5CCN(C)CC5)c(O)c4c3C2=O)NC(=O)/C(C)=C\C=C\[C@H](C)[C@H](O)[C@@H](C)[C@@H](O)[C@@H](C)[C@H](OC(C)=O)[C@@H]1C 11 to 15 mm

Please answer likewise for CO[C@@H]1[C@@H](OC(N)=O)[C@@H](O)[C@H](Oc2ccc3c(O)c(NC(=O)c4ccc(O)c(CC=C(C)C)c4)c(=O)oc3c2C)OC1(C)C 27 to 28 mm

What about CN(C)C1C(=O)C(C(N)=O)=C(O)C2(O)C(=O)C3=C(O)c4c(O)cccc4C(C)(O)C3CC12 (stereo not shown) ? 11 to 12 mm

Now give it for CN(C)[C@@H]1C(O)=C(C(N)=O)C(=O)[C@@]2(O)C(O)=C3C(=O)c4c(O)ccc(Cl)c4[C@@](C)(O)[C@H]3C[C@@H]12 too. 18 mm
